System: ARPE-19mel cells
Experiment: Melanosomal drug uptake assay in re-pigmented ARPE-19mel cells (medium concentration vs non-pigmented ARPE-19, LC-MS/MS)
Format: in vitro ADME, human
Conditions: 100 % stage of pigmentation (68 µg melanin/well); 4 µM drug, 20 hours, serum-free medium

{"compound": "CN(Cc1cnc2nc(N)nc(N)c2n1)c1ccc(C(=O)N[C@@H](CCC(=O)O)C(=O)O)cc1 [methotrexate]", "Melanosomal drug uptake (%), average": "3.5%"}
{"compound": "CC(C)(C)NC[C@H](O)COc1nsnc1N1CCOCC1", "Melanosomal drug uptake (%), average": "48.2%"}
{"compound": "CC(C)NCC(O)COc1cccc2ccccc12 (stereo not drawn)", "Melanosomal drug uptake (%), average": "92.2%"}
{"compound": "O=C(O)Cc1ccccc1Nc1c(Cl)cccc1Cl", "Melanosomal drug uptake (%), average": "3.7%"}
{"compound": "CCN(CC)CCCC(C)Nc1ccnc2cc(Cl)ccc12 (stereo not drawn)", "Melanosomal drug uptake (%), average": "96.7%"}
{"compound": "CC[C@@H]1C(=O)OC[C@@H]1Cc1cncn1C", "Melanosomal drug uptake (%), average": "30.2%"}

---

Melanosomal drug uptake (fraction of administered compound in the melanosomes) listing for selected compounds.
Tested on: ARPE-19mel cells
Experiment: Melanosomal drug uptake assay in re-pigmented ARPE-19mel cells (medium concentration vs non-pigmented ARPE-19, LC-MS/MS)
Format: in vitro ADME, human
Conditions: ARPE-19mel cells; pigmentation stage not specified; 4 µM drug, 20 hours
endpoint_label: Melanosomal drug uptake (fraction of administered compound in the melanosomes)

{"compound": "CN(Cc1cnc2nc(N)nc(N)c2n1)c1ccc(C(=O)N[C@@H](CCC(=O)O)C(=O)O)cc1 [methotrexate]", "assay_system": "ARPE-19mel cells", "result": "< 5%"}
{"compound": "CCN(CC)CCCC(C)Nc1ccnc2cc(Cl)ccc12 (stereo not shown) [chloroquine]", "assay_system": "ARPE-19mel cells", "result": "> 90%"}
{"compound": "CC(C)NCC(O)COc1cccc2ccccc12 (stereo not shown) [propranolol]", "assay_system": "ARPE-19mel cells", "result": "> 90%"}
{"compound": "O=C(O)Cc1ccccc1Nc1c(Cl)cccc1Cl [diclofenac]", "assay_system": "ARPE-19mel cells", "result": "< 5%"}

---

Test system: ARPE-19mel cells
Assay: Melanosomal drug uptake assay in re-pigmented ARPE-19mel cells (medium concentration vs non-pigmented ARPE-19, LC-MS/MS)
Type: in vitro ADME, human
Conditions: 10 % stage of pigmentation (7 µg melanin/well); 4 µM drug, 20 hours, serum-free medium
Reported Melanosomal drug uptake (%), average values follow for various compounds

{"compound": "CC(C)NCC(O)COc1cccc2ccccc12 (stereo not drawn)", "Melanosomal drug uptake (%), average": 34.1}
{"compound": "CC(C)(C)NC[C@H](O)COc1nsnc1N1CCOCC1", "Melanosomal drug uptake (%), average": 17.6}
{"compound": "CC[C@@H]1C(=O)OC[C@@H]1Cc1cncn1C", "Melanosomal drug uptake (%), average": 11.5}
{"compound": "CCN(CC)CCCC(C)Nc1ccnc2cc(Cl)ccc12 (stereo not drawn)", "Melanosomal drug uptake (%), average": 80.3}
{"compound": "O=C(O)Cc1ccccc1Nc1c(Cl)cccc1Cl", "Melanosomal drug uptake (%), average": 0.8}
{"compound": "CN(Cc1cnc2nc(N)nc(N)c2n1)c1ccc(C(=O)N[C@@H](CCC(=O)O)C(=O)O)cc1 [methotrexate]", "Melanosomal drug uptake (%), average": 5.1}

# credit: paper PMC6760193
